- target.of.assay: T1, Recombinant human His-tagged TfR1 (a.a. 89-760) (ACRO Biosystems, CD1-H5243) (human, UniProt P02786 89-760)
- T1 construct: range 89-760; Bought protein; Captured and amine-coupled on an NTA chip; also called human TfR1; transferrin receptor 1; not shown: His tag (printed 'Hiss-tagged')
- protocol.description: SPR (Biacore), TfR1 captured/coupled on NTA chip, peptide as analyte
Starred links: 1 amine or outer side, 2 acyl side, 3 side chain; linkers in the order of their positions; H or OH if unused. Positions of bridges follow the written chain, without caps; N, C: chain ends. Non-standard residues stand in square brackets, D forms with d. TATB = O=C(C[*:1])N1CN(C(=O)C[*:2])CN(C(=O)C[*:3])C1; Hyp = O=C(O)[C@@H]1C[C@@H](O)CN1; Tle = CC(C)(C)[C@H](N)C(=O)O
Can you tell me pKd for the items I'm about to list?
Answers are plain numbers, as −log10 of the molar value.

// for each binder below, give its pKd
1. CXXDAYLGCXSYCEPW (C[Cis-HyP][HyP]DAYLGC[tBuGly]SYCEPW: Cis-HyP at 2, HyP at 3, tBuGly at 10; N-terminal acetyl; C-terminal CONH2; Cys 1, 9, 13 bonded to TATB scaffold, Bicyclic peptide) [BCY23182]
2. Ac-CP[Hyp]DAYDGC[Tle]SYCEPW-NH2 (linker 1-9-13 via TATB; SMILES CC(=O)N[C@H]1CSCC(=O)N2CN3CN(C2)C(=O)CSC[C@@H](C(=O)N[C@@H](CCC(=O)O)C(=O)N2CCC[C@H]2C(=O)N[C@@H](Cc2c[nH]c4ccccc24)C(N)=O)NC(=O)[C@H](Cc2ccc(O)cc2)NC(=O)[C@H](CO)NC(=O)[C@H](C(C)(C)C)NC(=O)[C@H](CSCC3=O)NC(=O)CNC(=O)[C@H](CC(=O)O)NC(=O)[C@H](Cc2ccc(O)cc2)NC(=O)[C@H](C)NC(=O)[C@H](CC(=O)O)NC(=O)[C@@H]2C[C@@H](O)CN2C(=O)[C@@H]2CCCN2C1=O, Bicyclic peptide) [BCY23220]
3. CPXDAYLGCXSXCEPW (CP[HyP]DAYLGC[tBuGly]S[pCoPhe]CEPW: HyP at 3, tBuGly at 10, pCoPhe at 12; N-terminal acetyl; C-terminal CONH2; Cys 1, 9, 13 bonded to TATB scaffold, Bicyclic peptide) [BCY23202]
4. CPXDAYLGCXSYCEPY (CP[HyP]DAYLGC[tBuGly]SYCEPY: HyP at 3, tBuGly at 10; N-terminal acetyl; C-terminal CONH2; Cys 1, 9, 13 bonded to TATB scaffold, Bicyclic peptide) [BCY23207]

Output:
7.66
7.14
7.64
8.11

Ref: patent US20250276073A1
